Values were extracted from ChEMBL document CHEMBL1201861.

Catalogue of pIC50 values
Tested on: J-RT3-T3-5;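 note: cell viability assay measuring growth inhibition of human J-RT3-T3-5 cells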
Assay: cells
Assay type: functional, cell-based
Details: Homo sapiens
Description: SANGER: Inhibition of human J-RT3-T3-5 cell growth in a cell viability assay.
pIC50: −log10 of the molar value.

Answered examples (3):
{"smilesRepr": "CC(=O)c1c(C)c2cnc(Nc3ccc(N4CCNCC4)cn3)nc2n(C2CCCC2)c1=O", "pIC50": 6.03}
{"smilesRepr": "Cc1nc(Nc2ncc(C(=O)Nc3c(C)cccc3Cl)s2)cc(N2CCN(CCO)CC2)n1", "pIC50": "< 5.89"}
{"smilesRepr": "CO[C@@]12[C@H](COC(N)=O)C3=C(C(=O)C(C)=C(N)C3=O)N1C[C@@H]1N[C@@H]12", "pIC50": 6.73}

Value sought: pIC50, system J-RT3-T3-5, item NC(=O)c1ncn([C@@H]2O[C@H](COP(=O)(O)O)[C@@H](O)[C@H]2O)c1N . Result: < 2.70

Value sought: pIC50, system J-RT3-T3-5, item O=c1[nH]c2ccccc2n1C1CCN(Cc2ccc(-c3nc4cc5[nH]cnc5cc4nc3-c3ccccc3)cc2)CC1 . Result: < 5.59

Value sought: pIC50, system J-RT3-T3-5, item Cc1n[nH]c2ccc(-c3cncc(OC[C@@H](N)Cc4c[nH]c5ccccc45)c3)cc12 . Result: 6.73

Value sought: pIC50, system J-RT3-T3-5, item N#C/C(=C1/Nc2ccccc2S1)c1ccnc(NCCc2cccnc2)n1 . Result: < 5.10

Value sought: pIC50, system J-RT3-T3-5, item Cn1cc(/C=C2\C(=O)Nc3cccnc32)c2ccccc21 . Result: < 5.70
